Just for reference, ChEMBL document CHEMBL1154946 is where these values come from.

protocol-description: Inhibition of bovine heart sub-mitochondrial membrane SQR assessed as ubiquinol-dependent reduction of DCIP after 10 mins by spectrophotometry
Parameters: species or system Bos taurus
compounds and their reported log10(IC50)
The common logarithm of IC50 in nM is what is listed.

Here's what some known entries look like.
CCC(C)C(=O)c1c(O)nc(OC)c(OC)c1O (stereo not given)    1.98
COc1nc(O)c(C(=O)C(C)Cc2ccc(C(C)(C)C)cc2)c(O)c1OC (stereo not given)    0.90
COc1[nH]c(Br)c(C(=O)c2ccc(Cl)cc2)c(=O)c1OC    3.10

query: Tell me measured log10(IC50) for `COc1nc(O)c(C(=O)C2CCCCC2)c(O)c1OC` please.
result: 2.10

query: Tell me measured log10(IC50) for CCCCC(CC)C(=O)c1c(O)nc(OC)c(OC)c1O (stereo not given) please.
result: 2.10

* * *

protocol-description: Inhibition of bovine heart sub-mitochondrial membrane SQR assessed as ubiquinol-dependent reduction of DCIP after 10 mins by spectrophotometry
Set-up: species or system Bos taurus
compounds and their reported IC50
Your answer is read as nM, so omit the unit and give the number.

COc1[nH]cc(C(=O)c2ccc(-c3ccccc3)cc2)c(=O)c1OC    795
COc1nc(O)c(C(=O)C(C)CCC=C(C)C)c(O)c1OC (stereo not drawn)    5

query: Tell me measured IC50 for CCCCC(C)C(=O)c1c(O)nc(OC)c(OC)c1O (stereo not drawn) please.
result: 20

query: Tell me measured IC50 for `COc1[nH]cc(C(=O)c2ccc(Oc3ccccc3)cc2)c(=O)c1OC` please.
result: 492

* * *

protocol-description: Inhibition of Septoria nodorum sub-mitochondrial membrane SQR assessed as ubiquinol-dependent reduction of DCIP after 10 mins by spectrophotometry
Set-up: species or system Parastagonospora nodorum
molecules and their reported pIC50
// pIC50 is dimensionless: -log10 of concentration (M)

O=C(Nc1ccccc1-c1ccc(Cl)cc1)c1cccnc1Cl    6.61
COc1[nH]cc(C(=O)c2ccc(Cl)cc2)c(=O)c1OC    4.57
COc1[nH]cc(C(=O)c2ccc3ccccc3c2)c(=O)c1OC    4.68

Next, consider the following molecule.
query: Tell me measured pIC50 for COc1nc(O)c(C(=O)C(C)c2ccccc2)c(O)c1OC (stereo unspecified) please.
result: 6.52

* * *

protocol-description: Inhibition of Septoria nodorum sub-mitochondrial membrane SQR assessed as ubiquinol-dependent reduction of DCIP after 10 mins by spectrophotometry
Design: species or system Parastagonospora nodorum
// boundary case: IC50 equal to 200 nM maps to criterion not met; strictly smaller maps to criterion met

Examples from the recorded data:
COc1[nH]cc(C(=O)c2ccccc2Oc2ccccc2)c(=O)c1OC    criterion not met
CCCCCCCCCC(C)C(=O)c1c(O)nc(OC)c(OC)c1O (configuration not stated)    criterion met
COc1[nH]c(C)c(C(=O)c2ccc(Cl)cc2)c(=O)c1OC    criterion not met
COc1[nH]cc(C(=O)c2cccc(Cl)c2)c(=O)c1OC    criterion not met
COc1nc(O)c(C(=O)C2CCCCC2)c(O)c1OC    criterion not met

query: Determine whether this molecule shows IC50 lower than 200 nM (ties excluded): `COc1[nH]cc(C(=O)c2ccc(Oc3ccccc3)cc2)c(=O)c1OC`
result: criterion not met

query: Determine whether this molecule shows IC50 lower than 200 nM (ties excluded): CCCCC(C)C(=O)c1c(O)nc(OC)c(OC)c1O (configuration not stated)
result: criterion met

query: Determine whether this molecule shows IC50 lower than 200 nM (ties excluded): `COc1[nH]c(OC)c(C(=O)c2ccc(Cl)cc2)c(=O)c1OC`
result: criterion not met

query: Determine whether this molecule shows IC50 lower than 200 nM (ties excluded): CCC(C)C(=O)c1c(O)nc(OC)c(OC)c1O (configuration not stated)
result: criterion not met

query: Determine whether this molecule shows IC50 lower than 200 nM (ties excluded): `COc1[nH]cc(C(=O)c2ccc(-c3ccccc3)cc2)c(=O)c1OC`
result: criterion not met

query: Determine whether this molecule shows IC50 lower than 200 nM (ties excluded): COc1nc(O)c(C(=O)C(C)CCC=C(C)C)c(O)c1OC (configuration not stated)
result: criterion met

query: Determine whether this molecule shows IC50 lower than 200 nM (ties excluded): CCC(C)C(=O)c1c[nH]c(OC)c(OC)c1=O (configuration not stated)
result: criterion not met

query: Determine whether this molecule shows IC50 lower than 200 nM (ties excluded): `COc1nc(O)c(C(=O)c2cccc(Oc3ccccc3)c2)c(O)c1OC`
result: criterion not met

query: Determine whether this molecule shows IC50 lower than 200 nM (ties excluded): `COc1[nH]cc(C(=O)c2cccc(Oc3ccccc3)c2)c(=O)c1OC`
result: criterion not met

query: Determine whether this molecule shows IC50 lower than 200 nM (ties excluded): `COc1nc(OC(C)=O)c(C(=O)c2ccc(Cl)cc2)c(OC(C)=O)c1OC`
result: criterion not met

query: Determine whether this molecule shows IC50 lower than 200 nM (ties excluded): `COc1ccc(C(=O)c2c[nH]c(OC)c(OC)c2=O)cc1`
result: criterion not met

* * *

Test system: Parastagonospora nodorum
protocol-description: Antifungal activity against Septoria nodorum at 200 ppm by whole plant assay
Assay type: functional, organism-based
Activity calls are given as the source filed them. The calls are words filed in the database; no cut-off is given here.
reported-endpoint: Activity

COc1nc(OC(C)=O)c(C(=O)c2ccc(Cl)cc2)c(OC(C)=O)c1OC    inactive
COc1nc(O)c(C(=O)C(C)c2ccccc2)c(O)c1OC (stereo not drawn)    inactive
COc1[nH]c(Br)c(C(=O)c2ccc(Cl)cc2)c(=O)c1OC    inactive

* * *

protocol-description: Inhibition of bovine heart sub-mitochondrial membrane SQR assessed as ubiquinol-dependent reduction of DCIP after 10 mins by spectrophotometry
Parameters: species or system Bos taurus
reported-endpoint: log10(IC50) (log10 of the value in µM)
The common logarithm of IC50 in µM is what is listed.

Here's what some known entries look like.
COc1[nH]cc(C(=O)c2cccc(Cl)c2)c(=O)c1OC    0.82
COc1[nH]cc(C(=O)c2ccc3ccccc3c2)c(=O)c1OC    1.11
COc1[nH]c(C)c(C(=O)c2ccc(Cl)cc2)c(=O)c1OC    1.14
COc1nc(O)c(C(=O)c2ccc(Cl)cc2)c(O)c1OC    -0.49
COc1[nH]cc(C(=O)c2ccc(Cl)cc2)c(=O)c1OC    0.53

query: Tell me measured log10(IC50) for `COc1nc(O)c(C(=O)c2cccc(Oc3ccccc3)c2)c(O)c1OC` please.
result: -0.95

query: Tell me measured log10(IC50) for `COc1[nH]cc(C(=O)c2cccc(Oc3ccccc3)c2)c(=O)c1OC` please.
result: -0.34

query: Tell me measured log10(IC50) for COc1[nH]c(=O)c(C(=O)[C@@H](C)C[C@H](C)[C@@H](Cl)CCl)c(O)c1OC [ATPENIN A5] please.
result: -2.40

query: Tell me measured log10(IC50) for CCCCCCCCCC(C)C(=O)c1c(O)nc(OC)c(OC)c1O (centres undefined) please.
result: -2.52

query: Tell me measured log10(IC50) for COc1nc(O)c(C(=O)C(C)c2ccccc2)c(O)c1OC (centres undefined) please.
result: -2.10

query: Tell me measured log10(IC50) for O=C(Nc1ccccc1-c1ccc(Cl)cc1)c1cccnc1Cl [BOSCALID] please.
result: 0.25

query: Tell me measured log10(IC50) for `COc1nc(O)c(C(=O)C(c2ccccc2)c2ccccc2)c(O)c1OC` please.
result: -0.20

* * *

protocol-description: Inhibition of Septoria nodorum sub-mitochondrial membrane SQR assessed as ubiquinol-dependent reduction of DCIP after 10 mins by spectrophotometry
Design: species or system Parastagonospora nodorum
molecules and their reported IC50

Here's what some known entries look like.
COc1nc(O)c(C(=O)c2ccc(Cl)cc2)c(O)c1OC    > 30000 nM
COc1[nH]c(=O)c(C(=O)[C@@H](C)C[C@H](C)[C@@H](Cl)CCl)c(O)c1OC    11 nM
COc1[nH]cc(C(=O)c2ccccc2Cl)c(=O)c1OC    > 30000 nM
COc1[nH]c(Br)c(C(=O)c2ccc(Cl)cc2)c(=O)c1OC    1940 nM
CCCCC(CC)C(=O)c1c(O)nc(OC)c(OC)c1O (stereo unspecified)    234 nM

query: Tell me measured IC50 for COc1nc(O)c(C(=O)C(C)Cc2ccc(C(C)(C)C)cc2)c(O)c1OC (stereo unspecified) please.
result: 24 nM
